inhibition at 50 µg/mL overview
Test system: Botrytis cinerea
experiment.description: Antifungal activity against Botryotinia fuckeliana UCA 992 assessed as inhibition of radial growth at 50 ug/mL after 6 days relative to control
Assay type: functional
experimental.context: UCA 992, 144 h
Output spec: scalar in %, unitless text.

Solved entries:
{"molecule": "CC(C)(C)O[C@H]1CC(C)(C)[C@@H]2CC[C@@]3(C)C[C@]12CC[C@H]3O", "system": "Botrytis cinerea", "unit.tag": "%", "inhibition at 50 µg/mL": 59}
{"molecule": "CC1(C)C[C@H](O)[C@]23CC[C@@H](O)[C@@](C)(CC[C@@H]12)C3 [CLOVANEDIOL]", "system": "Botrytis cinerea", "unit.tag": "%", "inhibition at 50 µg/mL": 36}
{"molecule": "CO[C@H]1CC(C)(C)[C@@H]2CC[C@@]3(C)C[C@]12CC[C@H]3O [2BETA-METHOXYCLOVAN-9ALPHA-OL]", "system": "Botrytis cinerea", "unit.tag": "%", "inhibition at 50 µg/mL": 49}

Which value of inhibition at 50 µg/mL has been reported for CC1(C)C[C@H](SCCS)[C@]23CC[C@@H](O)[C@@](C)(CC[C@@H]12)C3 in the records?
32

Origin of values: ChEMBL document CHEMBL3046965
